Test system: NCI-H23 lung
Test Method Notes: NCI-60 one-dose screen, 48 h (100 = growth as untreated, 0 = no growth, -100 = all killed)
Condition: 10 µM unless noted
Compounds without any hit were thinned out: in the full panel of roughly 83,000, 20% have a hit. Active and inactive are the calls of the source. How the source made its calls: active means growth percent below 10; inactive means the rest.
Attribute Measured: growth

Sample answers from the record:
Compound	growth
CCOc1ccccc1NC(=O)CCC(=O)OC	109% (inactive)
CCCCC1=C(Br)C(=O)c2ncccc2C1=O	95% (inactive)
O=C1CCC(C(=O)N/N=C/c2ccc([N+](=O)[O-])cc2)N1 (stereo not given)	98.6% (inactive)
COc1ccc(C2=NN3C(C2)c2cc(Br)ccc2OC3c2ccncc2)cc1 (stereo not given)	81.8% (inactive)
C=C(C)[C@@H]1CC[C@]2(COC(=O)c3cccnc3)CC[C@]3(C)[C@H](CC[C@@H]4[C@@]5(C)CCCN(C(=O)c6cccnc6)C(C)(C)[C@@H]5CC[C@]43C)[C@@H]12	42.6% (inactive)
O=C(Nc1ccc2c(c1)-c1ccccc1C2)C1CC(=O)N(c2ccc3c(c2)OCO3)C1 (stereo not given)	51.6% [50 µM] (inactive)
COc1ccccc1NC(=O)n1c(=O)cc(C)c2ccc(O)cc21	102% (inactive)
CN(C)CC1C(=O)O[C@H]2[C@H]1CC/C(COC(=O)NCc1ccc(Cn3c(=O)sn(CCCI)c3=O)cc1)=C\CC[C@@]1(C)O[C@@H]21 (stereo not given in full)	55.3% (inactive)
CN1CCN(Cc2ccc(NC(=O)c3cncc(C#Cc4cnc(N)c5ncccc45)c3)cc2Cl)CC1	57.3% (inactive)

Proceeding to the next compound to report its growth.
Observed growth, NCI-H23 lung, COc1cccc2cc(N(C)c3nc(C)nc4c3CCC4)ccc12 : 22.4% (inactive)

====

Test system: SR leukemia
Test Method Notes: NCI-60 one-dose screen, 48 h
Condition: 10 µM unless noted
Procedure: Growth inhibition of the SR human tumor cell line is measured as a screen for anti-cancer activity. Cells are grown in 96 well plates and exposed to the test compound for 48 hours. Compounds are tested at a single concentration, which is 10^-5 M for most compounds. The reported endpoint is percent growth (GI% or GIPRCNT), where numbers from 0 - 100% represent growth inhibition, and numbers from -100% - 0 represent cell death. For example, a value of 40 represents 60% growth inhibition. […]
This is part of a sample that, as a whole, favours compounds with a hit. Of some 83,000 tested, about 20% had one in any assay. Active and inactive are the calls of the source. The calls were made as follows: active = growth percent below 10; inactive = the rest.
Lab note: assign the record to one of 1.0 (active), 0.0 (inactive)

Compound	Classification
c1ccc(-c2nc(N3CCNCC3)c3oc(-c4ccccc4)nc3n2)cc1	1.0

Identify the outcome logged in this assay for the compound shown: CC(=O)c1c(/C=C/c2ccc(C)cc2)c2ccccc2[nH]c1=O
0.0

Identify the outcome logged in this assay for the compound shown: COc1ccc(/C=C2/CCc3cc4ccc(OC)cc4[o+]c32)c(O)c1
1.0

Identify the outcome logged in this assay for the compound shown: COc1cc(C2=Nc3c(N)nc(N)nc3NC(c3cccc(Nc4ccnc5cc(C(F)(F)F)ccc45)c3)C2)cc(OC)c1OC (stereo not given)
1.0

Identify the outcome logged in this assay for the compound shown: O=C(/C=C/c1ccc(Cl)cc1)c1ccc(-n2cc(CN3CCN(c4cc5c(cc4F)c(=O)c(C(=O)O)cn5C4CC4)CC3)nn2)cc1
0.0

Identify the outcome logged in this assay for the compound shown: COC(=O)[C@H](C)NC(=O)[C@@H]1CCCN1C(=O)CNC(=O)[C@H](C)N
0.0
